System: Staphylococcus aureus ssp. Aureus
Experiment: In vitro antibacterial activity (MIC), S. aureus
Type: cell-based
Details: Staphylococcus aureus; Table 1 and main text; read-out: Sa MIC95
quantityKind: MIC (µM)
Write down the numeric answer in µM and omit the unit.

Challenge: Any idea what its MIC is? The compound is "O=C(Nc1cccc(N2CCNCC2)c1)c1cc(-c2cc(Cl)ccc2O)[nH]n1"
Response given: 37

Challenge: Param item = "O=C(Nc1ccc(CNC2=NCCN2)cc1)c1cc(-c2cc(Cl)ccc2O)[nH]n1" ; retrieve measured MIC.
Response given: 49

* * *

Test: Solubility in 7H9 medium
Format: physicochemical
Settings: M. tuberculosis growth medium (7H9)
quantityKind: 7h9 media Sol. (µM)
Quick reminder: number only, in µM, skip the unit.

Recorded results for 2 compounds are shown here.
{"lineNotation": "O=C(Nc1cccc(CN2CCOCC2)c1)c1cc(-c2cc(Cl)ccc2O)[nH]n1", "quantityKind": "7h9 media Sol.", "recordedMeasurement": 16}
{"lineNotation": "O=C(Nc1cccc(CN2CCNCC2)c1)c1cc(-c2cc(Cl)ccc2O)[nH]n1", "quantityKind": "7h9 media Sol.", "recordedMeasurement": 64}

Challenge: Would you kindly share the measured 7h9 media Sol. for "NCc1cccc(NC(=O)c2cc(-c3cc(Cl)ccc3O)[nH]n2)c1" ?
Response given: 64

* * *

Recorded measurements of inhibition at 50 µM, one per entry
Tested on: Escherichia coli ∆tolC
Experiment: microbe, parasite or virus in culture
Assay type: cell-based
Conditions: Escherichia coli, read-out: Ec∆tolC inh. at 50 µM (%)
Record the value in %, omitting the unit from your answer.

{"compound": "CC(C)(C)OC(=O)N1CCN=C1NCc1ccc(NC(=O)c2cc(-c3cc(Cl)ccc3O)[nH]n2)cc1 [Compound 8D]", "quantityKind": "inhibition at 50 µM", "recordedMeasurement": 18.5}
{"compound": "CC(C)(C)OC(=O)N1CCN(c2cc(NC(=O)c3cc(-c4cc(Cl)ccc4O)[nH]n3)cc(C(F)(F)F)c2)CC1 [Compound 11B]", "quantityKind": "inhibition at 50 µM", "recordedMeasurement": 18}
{"compound": "CC(C)(C)OC(=O)N1CCN(c2cccc(NC(=O)c3cc(-c4cc(Cl)ccc4O)[nH]n3)c2)CC1 [Compound 5B]", "quantityKind": "inhibition at 50 µM", "recordedMeasurement": 19}

Challenge: Request: inhibition at 50 µM, test system Escherichia coli ∆tolC, entry N=C(N)N1CCN(C(=O)c2cc(-c3cc(Cl)ccc3O)[nH]n2)CC1 [Compound 14G]
Response given: 18

* * *

Recorded CC50 for the following molecules
Assay: in vitro
Conditions: human, HepG2 CC50, 48 h, MTT
Response body: numeric value in µM, unit text excluded.

Known CC50 results, listed for orientation:
{"molecule": "NCc1ccc(NC(=O)c2cc(-c3cc(Cl)ccc3O)[nH]n2)cc1C(F)(F)F [Compound 10A]", "unitSymbol": "µM", "CC50": 13}
{"molecule": "NCc1cc(NC(=O)c2cc(-c3cc(Cl)ccc3O)[nH]n2)cc(C(F)(F)F)c1 [Compound 9A]", "unitSymbol": "µM", "CC50": 7}
{"molecule": "O=C(Nc1ccc(N2CCNCC2)cc1)c1cc(-c2cc(Cl)ccc2O)[nH]n1 [Compound 6A]", "unitSymbol": "µM", "CC50": 11.8}
{"molecule": "CC(C)(C)OC(=O)N1CCN(Cc2ccc(NC(=O)c3cc(-c4cc(Cl)ccc4O)[nH]n3)cc2)CC1 [Compound 4B]", "unitSymbol": "µM", "CC50": 7}
{"molecule": "CC(C)(C)OC(=O)N1CCN(c2cc(NC(=O)c3cc(-c4cc(Cl)ccc4O)[nH]n3)cc(C(F)(F)F)c2)CC1 [Compound 11B]", "unitSymbol": "µM", "CC50": 4}
{"molecule": "NCc1cccc(NC(=O)c2cc(-c3cc(Cl)ccc3O)[nH]n2)c1 [Compound 7A]", "unitSymbol": "µM", "CC50": 28.4}
{"molecule": "O=C(Nc1ccc(C(F)(F)F)c(N2CCNCC2)c1)c1cc(-c2cc(Cl)ccc2O)[nH]n1 [Compound 13A]", "unitSymbol": "µM", "CC50": 8}
{"molecule": "CC(C)(C)OC(=O)N1CCN(c2cc(NC(=O)c3cc(-c4cc(Cl)ccc4O)[nH]n3)ccc2C(F)(F)F)CC1 [Compound 13B]", "unitSymbol": "µM", "CC50": 2.8}

Challenge: Name the reported CC50 value associated with the molecule O=C(Nc1cccc(N2CCNCC2)c1)c1cc(-c2cc(Cl)ccc2O)[nH]n1 [Compound 5A]
Response given: 9

Challenge: Suppose we examine the molecule CC(C)(C)OC(=O)NCc1cc(NC(=O)c2cc(-c3cc(Cl)ccc3O)[nH]n2)cc(C(F)(F)F)c1 [Compound 9B] ; what CC50 value has been reported?
Response given: 5

* * *

Tested on: Staphylococcus aureus ssp. Aureus
Test: In vitro antibacterial activity (MIC), S. aureus
Assay type: cell-based
Details: Staphylococcus aureus; Table 1 and main text; read-out: Sa MIC95
quantityKind: MIC (µM)
I only need the number, in µM, no unit after it.

Reference set, count: 3
{"molecule": "O=C(Nc1ccc(N2CCNCC2)c(C(F)(F)F)c1)c1cc(-c2cc(Cl)ccc2O)[nH]n1 [Compound 12A]", "quantityKind": "MIC", "recordedMeasurement": 14}
{"molecule": "CC(C)(C)OC(=O)N1CCN=C1NCc1cccc(NC(=O)c2cc(-c3cc(Cl)ccc3O)[nH]n2)c1 [Compound 7D]", "quantityKind": "MIC", "recordedMeasurement": 24}
{"molecule": "O=C(Nc1cc(CNC2=NCCN2)cc(C(F)(F)F)c1)c1cc(-c2cc(Cl)ccc2O)[nH]n1 [Compound 9C]", "quantityKind": "MIC", "recordedMeasurement": 9}

Challenge: Name the recorded MIC for N=C(N)N1CCN(c2ccc(NC(=O)c3cc(-c4cc(Cl)ccc4O)[nH]n3)cc2)CC1 [Compound 6G] .
Response given: 26

* * *

System: Escherichia coli ∆tolC
Assay: microbe, parasite or virus in culture
Type: cell-based
Conditions: Escherichia coli, read-out: Ec∆tolC inh. at 50 µM (%)
Class 1.0: inhibition at 50 µM at least 40%. Class 0.0: inhibition at 50 µM below 40%.

Below are worked cases with known answers.
{"compound": "O=C(Nc1cccc(C(F)(F)F)c1)c1cc(-c2cc(Cl)ccc2O)[nH]n1", "category": 0.0}
{"compound": "Cc1ccc(NC(=O)c2cc(-c3cc(Cl)ccc3O)[nH]n2)cc1", "category": 0.0}
{"compound": "CC(C)(C)OC(=O)NCc1cc(NC(=O)c2cc(-c3cc(Cl)ccc3O)[nH]n2)cc(C(F)(F)F)c1", "category": 1.0}
{"compound": "NCc1ccc(NC(=O)c2cc(-c3cc(Cl)ccc3O)[nH]n2)cc1", "category": 1.0}

Okay, now this compound:
Challenge: Reported inhibition at 50 µM reaches at least 40% for O=C(Nc1ccc(C(F)(F)F)c(N2CCNCC2)c1)c1cc(-c2cc(Cl)ccc2O)[nH]n1 [Compound 13A] ?
Response given: 1.0

* * *

Test system: Staphylococcus aureus ssp. Aureus
Test: In vitro antibacterial activity (MIC), S. aureus
Format: cell-based
Conditions: Staphylococcus aureus; Table 1 and main text; read-out: Sa MIC95
quantityKind: MIC

{"lineNotation": "NCc1cccc(NC(=O)c2cc(-c3cc(Cl)ccc3O)[nH]n2)c1", "MIC": "> 50 µM"}
{"lineNotation": "CC(C)(C)OC(=O)NCc1cc(NC(=O)c2cc(-c3cc(Cl)ccc3O)[nH]n2)cc(C(F)(F)F)c1", "MIC": "> 50 µM"}
{"lineNotation": "N=C(N)N1CCN(c2cccc(NC(=O)c3cc(-c4cc(Cl)ccc4O)[nH]n3)c2)CC1", "MIC": "23.1 µM"}

Challenge: Bench note: what MIC did "O=C(Nc1cccc([N+](=O)[O-])c1)c1cc(-c2cc(Cl)ccc2O)[nH]n1" show?
Response given: > 50 µM

Challenge: For the compound shown here, "O=C(Nc1cccc(C(F)(F)F)c1)c1cc(-c2cc(Cl)ccc2O)[nH]n1" , give the reported MIC.
Response given: > 50 µM

Challenge: Which MIC reading was recorded for the compound "N=C(N)NCc1ccc(NC(=O)c2cc(-c3cc(Cl)ccc3O)[nH]n2)cc1" ?
Response given: 22 µM

* * *

System: Streptococcus pneumoniae (DSM20566)
Experiment: In vitro antibacterial activity (MIC), S. pneumoniae
Assay type: cell-based
Settings: Streptococcus pneumoniae, DSM20566; Table S2, with standard deviation; read-out: Sp MIC95
Items are presented alongside their recorded MIC.
Express your answer in µM, writing the number without its unit.

Below: 2 molecules and their reported MIC.
{"molecule": "N=C(N)NCc1cccc(NC(=O)c2cc(-c3cc(Cl)ccc3O)[nH]n2)c1 [Compound 7G]", "recordedMeasurement": 49}
{"molecule": "CC(C)(C)OC(=O)N1CCN=C1NCc1cc(NC(=O)c2cc(-c3cc(Cl)ccc3O)[nH]n2)cc(C(F)(F)F)c1 [Compound 9D]", "recordedMeasurement": 21}

Moving on to the next molecule.
Challenge: What value of measured MIC is listed for NCc1ccc(NC(=O)c2cc(-c3cc(Cl)ccc3O)[nH]n2)cc1C(F)(F)F [Compound 10A] ?
Response given: 23
